Organism: Rattus norvegicus
# maps each entry to its Decrease
VALUE_KIND: Decrease

1. O=C(C1CCCCC1)N(CCN1CCN(c2ccccc2O)CC1)c1ccccn1 | 0.2 °C
2. CS(=O)(=O)Oc1ccccc1N1CCN(CCN(C(=O)C2CCCCC2)c2ccccn2)CC1 | 0.5 °C
3. O=C(C1CCCCC1)N(CCN1CCN(c2ccccc2OCCCF)CC1)c1ccccn1 | 0.6 °C
4. O=C(C1CCCCC1)N(CCN1CCN(c2ccccc2OS(=O)(=O)C(F)(F)F)CC1)c1ccccn1 | 0 °C
5. O=C(C1CCCCC1)N(CCN1CCN(c2ccccc2OCCF)CC1)c1ccccn1 | 1.1 °C
